These data points were gathered from ChEMBL document CHEMBL1201862.

# System: HCC 2998
# test: NCI tumour cell line growth inhibition, 48 h
Activity calls are given as the source filed them. Cut-off read from the data, not from the text of the source: active = GI50 up to about 1.1 µM and inactive = higher. Square brackets hold non-standard residues; d marks the D form. Peptide text beside a SMILES is read from it.
Outcome codes: active, inactive

{"compound": "COc1ccc(C2c3cc4c(c(OC)c3CC3OCC(=O)C32)OCO4)cc1OC (configuration not stated)", "target_system": "HCC 2998", "class_assignment": "active"}
{"compound": "CCCN(CCCCC(NC(C)=O)C(=O)NCc1ccccc1)C(=O)NC (configuration not stated)", "target_system": "HCC 2998", "class_assignment": "inactive"}
{"compound": "O=C(c1ccccc1)C1OC12C(=O)Nc1c(Cl)cc(Cl)cc12 (configuration not stated)", "target_system": "HCC 2998", "class_assignment": "inactive"}
{"compound": "CCc1ccccc1NC(=O)c1cccc([N+](=O)[O-])c1O", "target_system": "HCC 2998", "class_assignment": "inactive"}
{"compound": "Cc1cccc(-c2cc(=O)c3cc(C)c(C)c(C(=O)O)c3o2)c1", "target_system": "HCC 2998", "class_assignment": "inactive"}
{"compound": "N#CC(c1nc2ccccc2nc1Cl)S(=O)(=O)c1ccccc1 (configuration not stated)", "target_system": "HCC 2998", "class_assignment": "inactive"}
{"compound": "COc1ccc([N+]2=NC(c3ccc([N+](=O)[O-])cc3)=NN(c3ccccc3)C2)cc1", "target_system": "HCC 2998", "class_assignment": "inactive"}
{"compound": "Cc1cc(C)c(C#N)c(SC(=S)NC(=O)c2ccc(Cl)cc2)n1", "target_system": "HCC 2998", "class_assignment": "inactive"}
{"compound": "CCOc1ccc(N/C(=C(/C(Cl)=C(/Cl)N2CCCCC2)[N+](=O)[O-])n2nnc3ccccc32)cc1", "target_system": "HCC 2998", "class_assignment": "inactive"}
{"compound": "CC(=O)OCC1OC(O[C@@H]2C[C@H]3C(C)(C)[C@@H](OC(C)=O)CC[C@]3(C)[C@H]3CC[C@]45C[C@]4(CC[C@H]5[C@@H](C)C[C@@H](O)[C@H](O)C(C)(C)F)[C@@]32C)C(O)C(O)C1O (some centres not stated)", "target_system": "HCC 2998", "class_assignment": "inactive"}
{"compound": "CCOc1c(OC)cc(CNNc2nccs2)cc1OC", "target_system": "HCC 2998", "class_assignment": "inactive"}
{"compound": "Cc1cc(=O)oc2c(CNC(C)C(=O)O)c(O)ccc12 (configuration not stated)", "target_system": "HCC 2998", "class_assignment": "inactive"}
{"compound": "CC(CO)(CBr)COC(=O)c1cc(Br)c(N)c(Br)c1 (configuration not stated)", "target_system": "HCC 2998", "class_assignment": "inactive"}
{"compound": "C=C(C[N+](C)(C)C)N/N=C/c1oc(-c2ccc(OC)c(OC)c2)c(-c2ccc(OC)c(OC)c2)c1[N+](=O)[O-]", "target_system": "HCC 2998", "class_assignment": "inactive"}
{"compound": "COc1ccc(NC(C)=O)cc1N1C(=O)/C(=C\\c2cccc(Oc3ccccc3)c2)SC1c1ccccc1 (configuration not stated)", "target_system": "HCC 2998", "class_assignment": "inactive"}
{"compound": "Cc1cn(C2CC(O)C(COC(=O)NCCC(F)(F)C(F)(F)C(F)(F)C(F)(F)F)O2)c(=O)[nH]c1=O (configuration not stated)", "target_system": "HCC 2998", "class_assignment": "inactive"}
{"compound": "[O-][Cl+3]([O-])([O-])O.c1ccc(/N=c2\\snc(-c3ccccc3)s2)cc1", "target_system": "HCC 2998", "class_assignment": "inactive"}
{"compound": "O=S1(=O)c2ccccc2N2C(c3ccccc3)=NOC2(c2ccccc2)CC1c1ccc(Br)cc1 (configuration not stated)", "target_system": "HCC 2998", "class_assignment": "inactive"}
{"compound": "Clc1ccc(C2=Cc3nc2c(-c2ccccc2)c2ccc([nH]2)c(-c2ccccc2)c2nc(c(-c4ccccc4)c4ccc([nH]4)c3-c3ccccc3)C=C2)cc1", "target_system": "HCC 2998", "class_assignment": "inactive"}
{"compound": "CC(=O)/N=C1/N(/C=C2\\C(=O)Oc3ccccc3C2=O)C(=O)/C(=C/c2ccccc2Cl)N1C", "target_system": "HCC 2998", "class_assignment": "inactive"}
{"compound": "O=C(Nc1ccc(C(F)(F)F)cc1[N+](=O)[O-])C(=O)Nn1c(S)nc2ccccc2c1=O", "target_system": "HCC 2998", "class_assignment": "inactive"}
{"compound": "O=C(Nc1ccc(Cl)cc1)c1cc2c(cc1Cl)SC(NNCCO)=NS2(=O)=O", "target_system": "HCC 2998", "class_assignment": "inactive"}
{"compound": "O=c1c(Nc2ccccc2)cn(CCOc2ccc(Cl)cc2)c(=O)n1CCOc1ccc(Cl)cc1", "target_system": "HCC 2998", "class_assignment": "inactive"}
{"compound": "CSc1[nH]nc(N)c1C(=O)Nc1ccccc1", "target_system": "HCC 2998", "class_assignment": "inactive"}
{"compound": "C[N+]1(C)C[C@@H](O)C[C@@H]1C(=O)[O-] [BETONICINE]", "target_system": "HCC 2998", "class_assignment": "inactive"}
{"compound": "O=C(Cc1ccc(O)c(O)c1)NCc1c[nH]c2ccccc12", "target_system": "HCC 2998", "class_assignment": "inactive"}
{"compound": "COc1cc2c[n+](C)c3c4cc(OC)c(OC)cc4c(OC)cc3c2cc1OC", "target_system": "HCC 2998", "class_assignment": "inactive"}
{"compound": "COc1ccc(/C(Cl)=C(\\C=O)c2ccc(Cl)cc2)cc1OC", "target_system": "HCC 2998", "class_assignment": "inactive"}
{"compound": "CCOC(=O)C1CC(C(=O)c2ccccc2)N2c3ccccc3-c3ccccc3C12 (configuration not stated)", "target_system": "HCC 2998", "class_assignment": "inactive"}
{"compound": "NS(=O)(=O)c1ccc(NC2(C(=O)O)CCCC2)cc1", "target_system": "HCC 2998", "class_assignment": "inactive"}
{"compound": "O=C(N/N=C(\\c1nc2ccc(Cl)cc2nc1O)C(O)c1ccccc1Cl)c1ccncc1 (configuration not stated)", "target_system": "HCC 2998", "class_assignment": "inactive"}
{"compound": "CC(C)[Si](OC1=C(C(=O)N(C)c2cccc(Cl)c2)CCCC1)(C(C)C)C(C)C", "target_system": "HCC 2998", "class_assignment": "inactive"}
{"compound": "Cc1nc(-c2cccnc2)sc1C(=O)/C=C/c1cccc([N+](=O)[O-])c1", "target_system": "HCC 2998", "class_assignment": "inactive"}
{"compound": "N=C(N)NCCC[C@H]1NC(=O)[C@@H](CCC(=O)O)NC(=O)[C@@H](CC(=O)O)NC(=O)[C@@H](CCC(=O)O)NC(=O)[C@H](Cc2c[nH]c3ccccc23)NC1=O (cyclo(W[dE][dD][dE][dR]))", "target_system": "HCC 2998", "class_assignment": "inactive"}
{"compound": "CC12CC(=O)NN=C1c1ccccc1C2 (configuration not stated)", "target_system": "HCC 2998", "class_assignment": "inactive"}
{"compound": "NC1=NS(=O)(=O)Nc2nc(-c3ccc([N+](=O)[O-])o3)[nH]c21", "target_system": "HCC 2998", "class_assignment": "inactive"}
{"compound": "COC(=O)CN(CC(=O)NCCNC(=O)OC(C)(C)C)C1CCCCC1N(CC(=O)OC)CC(=O)OC (configuration not stated)", "target_system": "HCC 2998", "class_assignment": "inactive"}
